- Test system: SK-MEL-28
- experiment: NCI tumour cell line growth inhibition, 48 h
Active and inactive are the calls of the source. No stated cut-off is given here; in the data, active = GI50 up to about 1.1 µM and inactive = higher.
Outcome codes: active, inactive

compound: O=C1C(NCCc2ccc(O)c(O)c2)=CC(=O)c2ncccc21
assigned.class: inactive
//
compound: Cc1ccc(S(=O)(=O)C2=Cc3ccc(C(F)(F)F)cc3C2(O)c2cccc(C(F)(F)F)c2)cc1 (stereo not drawn)
assigned.class: inactive
//
compound: CO[C@@]12C[C@@H](C)[C@]34O[C@H]3C[C@]3(C)O[C@]43CC1=C(C)C(=O)O2
assigned.class: inactive
//
compound: Cc1cc(O)c(C(C)C)cc1CN1CCCCC1
assigned.class: inactive
//
compound: COC(=O)c1ccccc1/N=C/c1ccc(N(CCC#N)S(=O)(=O)c2ccccc2)cc1
assigned.class: inactive
//
compound: CCN(CC)CCNc1ccc([N+](=O)[O-])c2nc3ccc(OC)cc3c(N)c12
assigned.class: inactive
//
compound: CC(=O)Oc1ccc(C2SCc3nc4ccccc4n32)cc1 (stereo not drawn)
assigned.class: inactive
//
compound: CCOP(=O)(OCC)C(Cc1ccc(OC)c(OC)c1)N=C(c1ccccc1)c1ccccc1 (stereo not drawn)
assigned.class: inactive
//
compound: CC(=O)OCC12C(OC(C)=O)C[C@@H](C)C3(CC(c4ccoc4)OC3=O)C1CCC(O)C21CO1 (stereo partly drawn)
assigned.class: inactive
//
compound: CCOC(=O)CCC1(C(=O)OCC)CCCC1=O (stereo not drawn)
assigned.class: inactive
//
compound: CCOC(=O)c1nnn(CCCCO)c1C(=O)OCC
assigned.class: inactive
//
compound: O=C1C(NCCN2CCOCC2)=C(Cl)C(=O)c2ncccc21
assigned.class: inactive
//
compound: O=[N+]([O-])C(=C(Cl)Cl)C(Cl)=C(Cl)Cl
assigned.class: active
//
compound: Cc1ccc(S(=O)(=O)NC(=O)C2(Br)S(=O)(=O)OCCOS2(=O)=O)cc1
assigned.class: inactive
//
compound: O=[N+]([O-])/C=C/c1ccc(Cl)cc1Cl
assigned.class: inactive
//
compound: CCN1CCCn2c(=O)[nH]c3cc(Br)cc1c32
assigned.class: inactive
//
compound: O=C(Nc1cccc(C(F)(F)F)c1)O/N=C(/Cl)CCl
assigned.class: inactive
//
compound: CN(C)c1ccc(/C=C2\N=C(NNc3ccccc3)NC2=O)cc1
assigned.class: inactive
//
compound: CCOC(=O)c1ccc(NCc2ccc3oc(=O)c(-c4ccccc4)nc3c2)cc1
assigned.class: inactive
//
compound: CC(=O)OC1COC(n2c(=S)n(-c3ccccc3)c(=O)c3ccccc32)C(OC(C)=O)C1OC(C)=O (stereo not drawn)
assigned.class: inactive
//
compound: O=C1C(Cl)=C(Nc2ccc(OC(F)(F)F)cc2)C(=O)c2c(O)ccc(O)c21
assigned.class: active
//
compound: COC(=O)C1SC(SC)=NC12c1ccccc1Nc1ccccc12 (stereo not drawn)
assigned.class: inactive
//
compound: Cc1cc(N(CCC#N)CCC#N)ccc1C(=N/NC(=O)c1cc(Cl)ccc1O)/N=N/c1cccc(Cl)c1
assigned.class: inactive
//
compound: CN(C)CC1CCCCCCCCCCCCC(CN(C)C)C1=O (stereo not drawn)
assigned.class: inactive
//
compound: C[C@@H]1CC[C@H]2C(C)(C)[C@H]3C[C@@]12CC[C@@]3(C)O
assigned.class: inactive
//
compound: C=C(C)/C=C/C(O)[C@](C)(O)[C@H]1[C@H](O)C[C@@]2(C)[C@@H]3CCc4c(cc(OC5OC(CO)C(O)C(O)C5O)c(O)c4C)C3(C)C(=O)C[C@]12C (stereo partly drawn)
assigned.class: inactive
//
compound: O=[N+]([O-])C(C(Cl)=C(Cl)Cl)=C(N1CCOCC1)N1CCOCC1
assigned.class: inactive
//
compound: COC(=O)C(=O)C(C(=O)C(=O)Nc1ccccc1C(N)=O)c1nc2ccc([N+](=O)[O-])cc2nc1O (stereo not drawn)
assigned.class: inactive

###

- Test system: UACC-62
- experiment: NCI tumour cell line growth inhibition, 48 h
Structures can show the parent of a compound that is named as a salt. Calls of active or inactive are those of the source. Rule as the data show it: active = GI50 up to about 1.1 µM and inactive = higher.
Outcome codes: TRUE for active, FALSE for inactive

compound: C[C@@H]1CC[C@H]2C(C)(C)[C@H]3C[C@@]12CC[C@@]3(C)O
assigned.class: FALSE

compound: CNS(=O)(=O)NNS(=O)(=O)c1ccc2ccccc2c1
assigned.class: FALSE

compound: O=[N+]([O-])c1cc(Cl)ccc1Sc1ccccc1
assigned.class: FALSE

compound: C/C=C/c1cc2c(cc1O)CC[C@@H]1[C@@H]2CC[C@]2(C)[C@@H](O)CC[C@@H]12
assigned.class: TRUE

compound: CCOC(=O)/C=C/CCC(C)(C)COC(C)=O
assigned.class: FALSE

compound: Cc1cc(O)nc(NNC(C#N)c2ccccc2O)n1 (centres undefined)
assigned.class: FALSE

compound: CN(C)c1cccc2c(S(=O)(=O)NCCCNCCN)cccc12
assigned.class: FALSE

compound: O=C(O)Cc1cc(=O)oc2cc(O)c(Cl)cc12
assigned.class: FALSE

compound: C#Cc1cccc(Nc2ncnc3cc(OCCOC)c(OCCOC)cc23)c1 [ERLOTINIB HYDROCHLORIDE]
assigned.class: TRUE

compound: CNC(=O)CNC(=O)CCC(=O)OC
assigned.class: FALSE

compound: O=[N+]([O-])C(C(Cl)=C(Cl)Cl)=C(N1CCOCC1)N1CCOCC1
assigned.class: FALSE

compound: Cc1ccc2ccccc2c1NC1=NCCO1
assigned.class: FALSE

compound: CN1C(=O)C2C=C3CCCCC3=CC2N(C)C1=O (centres undefined)
assigned.class: FALSE

compound: Nc1nn2c(=O)c3ccccc3nc2s1
assigned.class: FALSE

compound: COC1CC(OC2C(C)OC(OC3C(C)OC(OC4C(C)OC(O[C@H]5CC[C@@]6(C)C(=CC[C@]7(O)[C@@H]6C[C@@H](OC(C)=O)[C@@]6(C)[C@]7(O)CC[C@@]6(O)C(C)=O)C5)CC4OC)CC3OC)CC2OC)OC(C)C1O (some centres undefined)
assigned.class: FALSE

compound: CS(=O)(=O)c1ccc(COP(N)(=O)N(CCCl)CCCl)cc1 (centres undefined)
assigned.class: FALSE

compound: Cc1ccc(CC[PH](=O)CCc2ccc(C)nc2)cn1
assigned.class: FALSE

compound: O=C1CCN(CCC(F)(F)C(F)(F)C(F)(F)C(F)(F)C(F)(F)C(F)(F)F)C(=S)N1CCC(F)(F)C(F)(F)C(F)(F)C(F)(F)C(F)(F)C(F)(F)F
assigned.class: FALSE

compound: CC1(C)OCC(C(O)C2OC(C)(C)OC2C=O)O1 (centres undefined)
assigned.class: FALSE

compound: Nc1nc(Cl)cc(NCC2(CO)CC(CCc3ccccc3)C2)n1 (centres undefined)
assigned.class: FALSE

compound: O=C(N/C(=C\c1cccc([N+](=O)[O-])c1)c1nc2cc([N+](=O)[O-])ccc2[nH]1)c1ccccc1
assigned.class: FALSE

compound: O=c1cc(O)ccn1C1C=C(CO)C(O)C1O (centres undefined)
assigned.class: FALSE

compound: COC(=O)C1C(C(=O)OC)C1(Br)CBr (centres undefined)
assigned.class: FALSE

compound: O=C1Nc2ccccc2/C1=C/c1ccccc1
assigned.class: FALSE

compound: COc1ccc2nc3ccccc3c(NCCN(CCCl)CCCl)c2c1
assigned.class: TRUE

compound: O=C1c2ccccc2C(=O)c2c(OCCOCCO)cccc21
assigned.class: TRUE

compound: COC1=CC2C(c3cc4ccccc4n3S(=O)(=O)c3ccccc3)CC1CN2C(=O)OCc1ccccc1 (centres undefined)
assigned.class: FALSE

compound: CC(=O)C(/N=N\C1CCC(S(=O)(=O)NB2N=CS2)CC1)C(=O)Nc1ccccc1C (centres undefined)
assigned.class: FALSE

compound: O=C(O)C1C2C=CC(O2)C1C(=O)Nc1ccccc1 (centres undefined)
assigned.class: FALSE

compound: N#CC1=C(N2CCOCC2)CCC1
assigned.class: FALSE

compound: CN(C)CCNS(=O)(=O)N(C)C
assigned.class: FALSE

compound: O=C(O)CC(CC(=O)O)n1cccc1
assigned.class: FALSE

compound: CCCCCC/C=C\CCCCCCCCCc1cccc(O)c1C(=O)O
assigned.class: FALSE

compound: COC1C(C)OC(OC2CC(C)(O)Cc3cc4c(c(O)c32)C(=O)c2c(O)cc3c(c2C4=O)OC2OC3(C)C(O)C(N(C)C)C2O)C(OC)C1(C)OC (centres undefined)
assigned.class: TRUE

###

GI50 reference
- System: NCI-H522
- experiment: NCI tumour cell line growth inhibition, 48 h
The source made the active and inactive calls. Cut-off read from the data, not from the text of the source: active = GI50 up to about 1.1 µM and inactive = higher.

compound: CCCC1=C(CC)C(C(=O)Nc2c(C)cccc2C)=NC(S)N1 (stereo not drawn)
tested.target: NCI-H522
GI50: > 100 µM (inactive)

compound: C1CNOCCCONCCCNOCCCONC1
tested.target: NCI-H522
GI50: 67.6 µM (inactive)

compound: NC(CSc1nc2ccccn2c1[N+](=O)[O-])C(=O)O (stereo not drawn)
tested.target: NCI-H522
GI50: > 100 µM (inactive)

compound: CC(=O)OC1CC2C(C)(C)OC(=O)CC(OC(C)=O)[C@]2(C)C2CCC3(C)C(=CCC3c3ccoc3)[C@]12C (stereo partly drawn)
tested.target: NCI-H522
GI50: 15.6 µM (inactive)

compound: COc1cccc(C2c3cc4c(cc3OC(Nc3ccccc3)C2C)OCO4)c1O (stereo not drawn)
tested.target: NCI-H522
GI50: 4.4 µM (inactive)

compound: COc1cc2c(c(OC)c1OC)C(=O)CC2N (stereo not drawn)
tested.target: NCI-H522
GI50: > 100 µM (inactive)

compound: O=C(O)CSC(CC(=O)c1ccc(Cl)cc1)c1ccc(Cl)cc1 (stereo not drawn)
tested.target: NCI-H522
GI50: 14.7 µM (inactive)

compound: CCOC(=O)C1(N)CC1
tested.target: NCI-H522
GI50: > 100 µM (inactive)

Data credit: ChEMBL document CHEMBL1201862
